Catalogue of sequences with associated folding stability dG unfold
test: folding stability dG unfold from trypsin proteolysis; higher = more stable
# unit: kcal/mol | format: bare number

Which measured folding stability dG unfold value corresponds to SAGGSAGGSAGGKKIIKVPLKNAEKIKKELKKKYKIKKVKIEKNKDGSKYIYIEVEKPKSAGGSAGGSAGGS [r10_1219_TrROS_Hall] ?
0.939

Which measured folding stability dG unfold value corresponds to SAGGPPNGMVPIKVPIKIRFPNGHEFKIDEAYVMPNGMVMIEMTHTDPDDKKEKFPFMIPPDNLEIVSAGGS [r16_498_TrROS] ?
2.41

Which measured folding stability dG unfold value corresponds to SAGGSAGGSAGSMLLSLSIASVETTETTEIDPETGEKRKVTTTTITIPGTGQTITLTETVESAGGSAGGSAG [r3_424_JUSTAS] ?
1.83

Which measured folding stability dG unfold value corresponds to SAGGSASLDIVEELIEEEIKDSKGTKIKILKPIIYYPGKGLVLSNVTVYKPDGTKISTEKKIEPVGSAGGSA [r15_967_JUSTAS] ?
-0.635

Which measured folding stability dG unfold value corresponds to SMPEIKVEKKNGKLTITVPKGAKIKIKIEVNGKKIEKEVEVKEGETVTITIELPPNMPKDVKIKEIEIEKSA [r9_1152_TrROS_Hall] ?
1.61

Which measured folding stability dG unfold value corresponds to SAGGSAGGSAKKKKKKKKYKPKPVKIFKIKLKLKLEKTKDGLKLKIEEIEIEEIATLEKGLSAGGSAGGSAG [r3_397_TrROS_Hall] ?
1.88

Which measured folding stability dG unfold value corresponds to SAGGSAGGSMKPLGQGDFEDPDGWKIKISMYPDGWFRIEIYDKNGKPKETIPVPANDLPDILKSAGGSAGGS [r12_664_TrROS] ?
0.664

Which measured folding stability dG unfold value corresponds to SAGMEVEILGAEVDPETGVVKVVAVGRDPVTGVLVVDEITIKGDTVEIRREVYFPNTGKKAETTATIPLSAG [r5_150_TrMRF] ?
1.66
